FYI, the data here is from patent US20150258101A1.

molecular target: purified recombinantly expressed human SSAO (Homo sapiens); assay: SSAO enzyme inhibition assay (benzylamine substrate; hydrogen peroxide/HRP-coupled or 14C aldehyde detection); conditions: SSAO inhibitory activity, RT
Sequence (Q16853 whole entry): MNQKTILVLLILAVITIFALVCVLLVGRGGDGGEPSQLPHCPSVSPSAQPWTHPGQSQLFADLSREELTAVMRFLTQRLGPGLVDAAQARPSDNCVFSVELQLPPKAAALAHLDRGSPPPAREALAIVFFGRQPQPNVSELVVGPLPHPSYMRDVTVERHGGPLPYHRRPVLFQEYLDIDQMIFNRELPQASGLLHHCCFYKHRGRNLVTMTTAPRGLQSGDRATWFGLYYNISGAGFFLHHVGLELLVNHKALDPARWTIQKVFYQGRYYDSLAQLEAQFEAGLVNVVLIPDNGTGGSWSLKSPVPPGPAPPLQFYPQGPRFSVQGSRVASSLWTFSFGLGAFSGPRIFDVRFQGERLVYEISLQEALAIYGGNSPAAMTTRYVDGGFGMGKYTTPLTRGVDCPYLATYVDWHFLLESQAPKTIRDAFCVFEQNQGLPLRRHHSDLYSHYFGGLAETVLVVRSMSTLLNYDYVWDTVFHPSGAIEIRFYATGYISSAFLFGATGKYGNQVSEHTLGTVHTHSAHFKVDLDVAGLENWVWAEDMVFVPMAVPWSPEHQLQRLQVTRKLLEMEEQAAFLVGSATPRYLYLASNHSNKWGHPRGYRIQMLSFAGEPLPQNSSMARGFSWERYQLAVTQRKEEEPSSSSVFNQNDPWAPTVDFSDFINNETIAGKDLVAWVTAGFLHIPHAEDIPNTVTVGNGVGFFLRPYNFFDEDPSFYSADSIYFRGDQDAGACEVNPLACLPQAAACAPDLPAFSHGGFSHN
pIC50: −log10 of the molar value.
property name: pIC50

>>> df
                                    compound                        measurement_target     obs_value
 0  Clc1ccc(-n2c(-c3cnc(NCC4CC4)nc3)cc3ccncc32)cc1 [Example 149]  purified recombinantly expressed human SSAO (Homo sapiens)        > 7.30
 1  Cc1ccc(-n2c(-c3cnc(N4CCOCC4)nc3)cc3ccncc32)cc1 [Example 130]  purified recombinantly expressed human SSAO (Homo sapiens)  6.70 to 7.30
 2  O=c1cc(-c2cc3ccncc3n2-c2ccc(Cl)cc2)cc[nH]1 [Example 142]  purified recombinantly expressed human SSAO (Homo sapiens)  6.70 to 7.30
 3  Fc1ccc(-n2c(-c3ccc(N4CCOCC4)nc3)nc3ccncc32)c(Cl)c1 [Example 61]  purified recombinantly expressed human SSAO (Homo sapiens)        > 7.30
 4  Cc1ccc(-n2c(-c3ccc(N4C[C@@H](C)O[C@@H](C)C4)nc3)nc3ccncc32)nc1 [Example 104]  purified recombinantly expressed human SSAO (Homo sapiens)        > 7.30
 5  Fc1ccc(-n2c(-c3cnc(N4CCCOCC4)nc3)nc3ccncc32)cc1 [Example 25]  purified recombinantly expressed human SSAO (Homo sapiens)        > 7.30
 6  CC(C)OCCNc1ncc(-c2nc3ccncc3n2-c2ccc(F)cc2)cn1 [Example 38]  purified recombinantly expressed human SSAO (Homo sapiens)  6.70 to 7.30
 7  Cc1cc(N)ncc1-c1cc2ccncc2n1-c1ccc(Cl)cc1 [Example 141, bis(trifluoroacetic acid)]  purified recombinantly expressed human SSAO (Homo sapiens)  6.70 to 7.30
 8  Clc1ccc(-n2c(-c3ccc(CN4CCOCC4)cc3)nc3ccncc32)cc1 [Example 49]  purified recombinantly expressed human SSAO (Homo sapiens)        > 7.30
 9  Fc1ccc(-n2c(-c3cnc(C4CC4)nc3)nc3ccncc32)cc1 [Example 30]  purified recombinantly expressed human SSAO (Homo sapiens)  5.92 to 6.70
10  CCOCCNc1ncc(-c2nc3ccncc3n2-c2ccc(C)cc2)cn1 [Example 43]  purified recombinantly expressed human SSAO (Homo sapiens)        > 7.30
11  Cc1ccc(-n2c(-c3cnc(N4CCOCC4)cc3C)nc3ccncc32)cc1 [Example 97]  purified recombinantly expressed human SSAO (Homo sapiens)  5.92 to 6.70
12  COc1nc(N2CCOCC2)ccc1-c1nc2ccncc2n1-c1ccc(F)cc1 [Example 28]  purified recombinantly expressed human SSAO (Homo sapiens)  6.70 to 7.30
13  CS(=O)(=O)NC1CCN(c2ccc(-c3nc4ccncc4n3-c3ccc(Cl)cc3)cn2)CC1 [Example 88]  purified recombinantly expressed human SSAO (Homo sapiens)        > 7.30
14  Clc1ccc(-n2c(-c3cnc(N4CCOCC4)cn3)nc3ccncc32)cc1 [Example 5]  purified recombinantly expressed human SSAO (Homo sapiens)  6.70 to 7.30
15  Nc1ccc(-c2nc3ccncc3n2-c2ccc(Cl)cc2F)cn1 [Example 105]  purified recombinantly expressed human SSAO (Homo sapiens)  5.92 to 6.70
16  Cc1nc(N2CCOCC2)ncc1-c1nc2ccncc2n1-c1ccc(F)cc1 [Example 26]  purified recombinantly expressed human SSAO (Homo sapiens)  6.70 to 7.30
17  CN1CCN(C(=O)c2ccc(-c3cc4ccncc4n3-c3ccc(Cl)cc3)cc2)CC1 [Example 125]  purified recombinantly expressed human SSAO (Homo sapiens)  5.92 to 6.70
18  O=C1CN(c2ncc(-c3nc4ccncc4n3-c3ccc(F)cc3)cn2)CCN1 [Example 12]  purified recombinantly expressed human SSAO (Homo sapiens)  6.70 to 7.30
19  Cc1ccc(-n2c(-c3cnc(NCCOC(C)C)nc3)nc3ccncc32)cc1 [Example 39]  purified recombinantly expressed human SSAO (Homo sapiens)        > 7.30
20  Nc1cc(-c2cc3ccncc3n2-c2ccc(Cl)cc2)ccn1 [Example 147]  purified recombinantly expressed human SSAO (Homo sapiens)        > 7.30
21  Fc1ccc(-n2c(-c3cnc(NCC4CC4)nc3)nc3ccncc32)cc1 [Example 9]  purified recombinantly expressed human SSAO (Homo sapiens)        > 7.30
22  Fc1ccccc1-n1c(-c2cnc(N3CCOCC3)nc2)nc2ccncc21 [Example 60]  purified recombinantly expressed human SSAO (Homo sapiens)  6.70 to 7.30
23  c1cc2nc(-c3cnc(N4CCOCC4)nc3)n(-c3ccc(C4CC4)cc3)c2cn1 [Example 96]  purified recombinantly expressed human SSAO (Homo sapiens)  6.70 to 7.30
24  Clc1ccc(-n2c(-c3ccc(-n4cccn4)nc3)cc3ccncc32)cc1 [Example 151, bis(trifluoroacetic acid)]  purified recombinantly expressed human SSAO (Homo sapiens)  6.70 to 7.30
25  Clc1ccc(-n2c(-c3ccc(CN4CCOCC4)nc3)nc3ccncc32)cc1 [Example 3]  purified recombinantly expressed human SSAO (Homo sapiens)  6.70 to 7.30
26  Nc1ncc(-c2nc3ccncc3n2-c2ccc(Cl)cc2)cn1 [Example 31]  purified recombinantly expressed human SSAO (Homo sapiens)  5.92 to 6.70
27  Fc1ccc(-n2c(-c3cnc(N4CCOCC4)c(F)c3)nc3ccncc32)cc1 [Example 98]  purified recombinantly expressed human SSAO (Homo sapiens)  6.70 to 7.30
